EXPERIMENT DESCRIPTION: In vivo biodistribution of [^203Pb]VMT01 in B16-F10 melanoma xenograft model
Set-up: species or system athymic nude mice
CONDITION DETAILS: both sexes, athymic nude, mouse, muscle, intravenous, 74 KBq, total radioactivity, 3 h post-injection, tail vein, read-out: Biodistribution, Muscle, Average
Where a SMILES comes first, the peptide text is derived from it. Bridges are numbered along the chain shown (N, C = ends). Triazole bridges read from a SMILES are 1,4-linked. Side-chain parts run from the residue outwards. [ ]: non-standard residue; d: D form. The star is where a group is joined. X1 = NC(=O)CN1CCN(CC(=O)O)CCN(CC(=O)*)CCN(CC(=O)O)CC1; Lys(N3) = [N-]=[N+]=NCCCC[C@H](N)C(=O)O; Nle = CCCC[C@H](N)C(=O)O; Pra = C#CC[C@H](N)C(=O)O; AEEA = NCCOCCOCC(=O)O

# MOLECULE, tissue uptake at 3 h (%ID/g)
data = [
    ("CCCC[C@H](NC(C)=O)C(=O)N[C@H]1Cc2cn(nn2)CCCC[C@@H](C(=O)N[C@@H](CCCCNC(=O)COCCOCCNC(=O)CN2CCN(CC(=O)O)CCN(CC(N)=O)CCN(CC(=O)O)CC2)C(N)=O)NC(=O)[C@H](Cc2c[nH]c3ccccc23)NC(=O)[C@H](CCCNC(=N)N)NC(=O)[C@@H](Cc2ccccc2)NC(=O)[C@H](Cc2c[nH]cn2)NC1=O [[^203Pb]VMT01, metal not drawn] (Ac-[Nle][Pra]H[dF]RW[Lys(N3)]K([AEEA-X1])-NH2; triazole 2-7)", 0.04),
]
